# assay-overview: chemical genetic growth profiling, strain panel (AID 1159580);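 further: tested at 20 µM; growth read once vehicle control cultures reached saturation at 30 °C; 1 = growth at the plate median or of vehicle wells; lower values mean less growth of the strain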
# conditions: S. cerevisiae deletion strains, growth OD, locus YMR223W, strain ubp8, active compounds read low
The campaign covered roughly 5,500 compounds. About 2,000 (36%) were called active. Roughly 18% stayed inconclusive and do not appear here. This is one part of the list.
Listed next: entries and their corresponding normalized growth.
Please respond with just the number, no unit label.

compound: COC(=O)C[C@H]1C(C)(C)C(OC(C)=O)[C@]2(O)C=C3C4CC(=O)O[C@@H](c5ccoc5)[C@]4(C)CCC3[C@@]1(C)C2=O (some centres undefined)
normalized growth: 1.01
//
compound: C[C@]12CCC3C(CC[C@H]4C[C@@H](O)CC[C@]34C)C1CCC2=O (some centres undefined)
normalized growth: 0.794
//
compound: CC1=C2CCC3C(CC[C@]4(C)C(=O)CCC34)[C@@]2(C)CCC1=O (some centres undefined)
normalized growth: 0.9
//
compound: C[C@H]1C(=O)O[C@@H]2CCN3CC=C(COC(=O)[C@](C)(O)[C@]1(C)O)[C@H]23
normalized growth: 0.991
//
compound: COc1cc(OC)c2c(c1Cl)OC1(C2=O)C(O)=CC(=O)CC1C (centres undefined)
normalized growth: 1.01
//
compound: Nc1ncnc2nc[nH]c12
normalized growth: 0.846

# get_value(readout='normalized growth', item= CC(=O)N[C@@H](CC(=O)O)C(=O)O )
1.01

# get_value(readout='normalized growth', item= COC(=O)C1=CO[C@@H](O[C@@H]2O[C@H](CO)[C@@H](O)[C@H](O)[C@H]2O)[C@@H]2[C@@H](C)[C@@H](O)C[C@H]12 )
1.01

# get_value(readout='normalized growth', item= C[C@]12CCC3C(CC[C@H]4C[C@@H](Cl)CC[C@]34C)C1CCC2=O (some centres undefined) )
0.999

Values from PubChem BioAssay AID1159580
